Here the recorded composite z-score is given for each entry.
biological target: Albumin (Bos taurus) (UniProt P02769); experiment: bovine serum albumin binders on microarray, profiling panel, artefact control for SMM control protein annotation, biochemical, small-molecule microarray, Alexa647 label, 635/667 nm fluorescence (AID 1118); conditions: BSA-A647 binding, fluorescence 635 nm, higher = more signal;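 also: score merges 667 nm emission intensity and signal-to-noise per printed compound spot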
Sequence (P02769 whole entry, looked up): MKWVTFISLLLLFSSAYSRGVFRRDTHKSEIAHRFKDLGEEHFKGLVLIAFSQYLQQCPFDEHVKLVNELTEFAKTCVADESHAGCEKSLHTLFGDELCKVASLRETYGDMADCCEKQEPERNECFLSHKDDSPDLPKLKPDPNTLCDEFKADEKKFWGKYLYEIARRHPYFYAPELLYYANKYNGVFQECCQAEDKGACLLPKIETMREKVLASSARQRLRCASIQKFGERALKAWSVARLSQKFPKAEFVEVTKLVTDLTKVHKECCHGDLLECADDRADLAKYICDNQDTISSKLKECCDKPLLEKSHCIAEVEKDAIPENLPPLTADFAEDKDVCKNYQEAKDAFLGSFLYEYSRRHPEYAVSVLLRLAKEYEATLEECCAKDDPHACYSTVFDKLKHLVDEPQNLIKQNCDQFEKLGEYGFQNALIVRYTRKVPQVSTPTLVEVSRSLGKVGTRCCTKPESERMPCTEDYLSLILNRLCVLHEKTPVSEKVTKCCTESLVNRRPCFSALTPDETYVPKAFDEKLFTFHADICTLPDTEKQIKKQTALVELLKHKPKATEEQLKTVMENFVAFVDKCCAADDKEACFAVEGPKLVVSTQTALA
Please respond with just the number, no unit label.

// known answers, use as guide
CCOC(=O)[C@H](Cc1ccccc1)NC(=O)CCC1CC(OC(=O)NCc2ccc3c(c2)OCO3)CC2(CCCC(COC(=O)NCc3ccccc3)O2)O1 (stereo partly drawn) = 0.3
c1ccc(C2NCCc3c2[nH]c2ccccc32)cc1 (stereo not drawn) = 0.0809

Now for the molecule whose composite z-score we want.
Query: Need composite z-score, item "CCOC(=O)C1=CC[C@H]2C(=O)N(CC)C(=O)[C@@H]12"
Reply: 0.343

---

molecular target: Follistatin-related protein 3 (Homo sapiens); experiment: FSTL3 binders on small-molecule microarrays, primary screen, biochemical, small-molecule microarray, 635 nm fluorescence (AID 1105); details: FSTL3 binding, higher = more signal;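 also: score merges emission near 667 nm and signal to noise per printed spot across three slides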
composite z-score of 1 or higher: Satisfied. Under 1: Not satisfied.

The examples below pair each entry with its known result.
Cc1ccc(S(=O)(=O)N[C@@H]2COC(=O)[C@H](C)COC(=O)CC=C[C@H]2C)cc1 = Satisfied
CC(C)[C@@H](OCc1ccccc1)[C@H](C)C=NOC[C@@H](C)[C@H](OCc1ccccc1)C(C)C = Not satisfied
COC(=O)[C@@H]1CC[C@H](C)[C@@H](c2ccc(C)cc2)N1C(=O)c1ccc(C=NOC(C)CN2CCCCc3nc(C)c(C)cc32)cc1 (some centres not stated) = Not satisfied
COCCCNC(=O)[C@@]1(C)c2ccccc2C(=O)N(Cc2ccc(OC(F)(F)F)cc2)[C@H]1c1ccc(CO)cc1 = Not satisfied
O=C(NN=C1C[C@@H](O)[C@@H](O)[C@@H]2[C@@H]3C(=O)N(c4cccc(Oc5ccccc5)c4)C(=O)[C@@H]3CC[C@@H]12)OCc1ccccc1 = Not satisfied

Query: Has "COC(=O)[C@@]1(Cc2ccccc2)[C@H]2c3cc(C(=O)N4CCCC4)n(Cc4ccccn4)c3C[C@H]2CN1C(=O)c1ccccc1" a recorded composite z-score greater than or equal to 1?
Reply: Satisfied

---

test system: Neuregulin-1 EGF-like domain; experiment: binders of neuregulin-1 EGF-like domain, primary screen, biochemical, small-molecule microarray, 635 nm fluorescence (AID 1081); details: small-molecule microarray binding, higher = more signal;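 also: binding of the protein to compounds printed on small-molecule microarray slides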
composite z-score of 0.4 or higher: MET. Under 0.4: NOT MET.

O=C1[C@H]2[C@H]3[C@H](O)[C@H](O)CC(=NOCc4ccccc4)[C@H]3CC[C@H]2C(=O)N1c1ccc(F)cc1F = NOT MET
COCCOC(=O)N1C(=O)[C@@]2(c3ccccc31)[C@H](C(N)=O)[C@H]1C(=O)O[C@H](c3ccccc3)[C@H](c3ccccc3)N1[C@@H]2c1ccccc1OCCO = MET
COc1ccccc1CN1C(=O)c2ccccc2[C@@]2(Cc3ccccc3N(C(C)C)C2=O)[C@@H]1c1ccc(CO)cc1 = NOT MET

Query: Has "COC(=O)[C@@]1(Cc2ccc(F)cc2)[C@H]2c3cc(C(=O)N(C)C)n(Cc4ccc(OC)c(OC)c4)c3C[C@H]2CN1C(=O)c1ccccc1" a recorded composite z-score greater than or equal to 0.4?
Reply: MET

Query: Has Cn1cccc1C(O)C1C=CC2C(=O)NC(=O)C2N1Nc1ccccn1 (configuration not stated) a recorded composite z-score greater than or equal to 0.4?
Reply: NOT MET

Query: Has "CCN1C(=O)[C@H]2[C@H]3[C@H](O)[C@H](O)CC(=NO[C@@H]4O[C@H](CO)[C@@H](O)[C@H](O)[C@H]4O)[C@@H]3CC[C@H]2C1=O" a recorded composite z-score greater than or equal to 0.4?
Reply: NOT MET

Query: Has COc1cccc([C@H]2Oc3ccc(OC)cc3C(=NOC(C)CN3CCCc4nc(C)c(C)cc43)[C@@H]2O)c1 (some centres not stated) a recorded composite z-score greater than or equal to 0.4?
Reply: MET

---

test: S. cerevisiae growth modulation with rapamycin, primary screen, strain BY4716, OD600, 96 h (AID 1091); settings: called active from +8 up or from −8 down; also: test concentration not given here
Active and inactive are the calls of the source.
Select the correct class. Options are active, inactive and nothing else.

CCN1C(=O)[C@H]2[C@H]3[C@H](O)[C@H](O)CC(=NOCc4ccccc4)[C@@H]3CC[C@H]2C1=O = inactive
O=C1C[C@@H](O)[C@@H](O)[C@@H]2[C@@H]3C(=O)N(Cc4ccc5c(c4)OCO5)C(=O)[C@@H]3CC[C@@H]12 = inactive
COC(=O)[C@H]1COC(c2ccc(OCCCO)cc2)=N1 = inactive
CC(=O)OC[C@H]1O[C@@H](ON=C[C@@H](C)[C@H](OCc2ccccc2)C(C)C)[C@H](OC(C)=O)[C@@H](OC(C)=O)[C@@H]1OC(C)=O = inactive
C=C(/C(=C/C[C@H](OC(C)=O)c1ccc(OCCO)cc1)c1cnc2ccccc2c1)C(C)C = inactive

Query: Recorded test outcome, item "CC(C)NC(=O)[C@@]1(C)c2ccccc2C(=O)N(Cc2cc(F)cc(C(F)(F)F)c2)[C@H]1c1ccc(CO)cc1"
Reply: inactive

Query: Recorded test outcome, item CN1C(=O)C2C(C1=O)C1C=C(CCCO)C2C(c2ccc(CN3CCCC3)cc2)N1C (configuration not stated)
Reply: inactive

Query: Recorded test outcome, item CN1C(=O)C2C=CC(C(O)c3ccc(Br)cc3)N(N(c3ccccc3)c3ccccc3)C2C1=O (configuration not stated)
Reply: inactive

Query: Recorded test outcome, item "C[C@H]1Cc2c(-c3ccccc3)nc3c(c2CO1)CN(CCOc1ccccc1)CC3"
Reply: inactive

Query: Recorded test outcome, item "CC(=O)C[C@H](O)[C@@H](NC(=O)OC(C)(C)C)C(C)C"
Reply: inactive

Query: Recorded test outcome, item CCOC(=O)C1=CCC(c2cc3ccccc3[nH]2)NC1 (configuration not stated)
Reply: inactive

Query: Recorded test outcome, item "CC(C)CON=C1[C@H]2CCn3c(=O)n(-c4ccccc4)c(=O)n3[C@H]2[C@H](O)[C@@H]2O[C@H]12"
Reply: inactive

Query: Recorded test outcome, item "CCOC(=O)NN=C1C[C@@H](O)[C@@H](O)[C@@H]2[C@@H]3C(=O)N(CC)C(=O)[C@@H]3CC[C@@H]12"
Reply: inactive

---

experiment: basal RPMI8226 viability, no added stimulus, profiling panel, cell-based, calcein-AM fluorescence, 48 h, PK04 Diversity Set (AID 1166); details: RPMI8226 myeloma viability, higher = more signal;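 also: cells grown under basal conditions without added stimulus; test concentration not given here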
We'd kindly ask you to apply these z-score classes: c1 = under -0.2, c2 = from -0.2 up to 0.3, c3 = 0.3 and over

O=C1[C@H]2[C@H]3[C@H](O)[C@H](O)CC(=NOCc4ccccc4)[C@H]3CC[C@H]2C(=O)N1c1ccc(F)cc1F = c3
COCCOC(=O)N1C(=O)[C@@]2(c3cc(C#CCNC(N)=O)ccc31)[C@H](c1ccc(O)cc1)N1[C@H](c3ccccc3)[C@H](c3ccccc3)OC(=O)[C@H]1[C@@H]2C(=O)N1CCCCCCC1 = c2
CCOC(=O)C1=CC[C@H]2C(=O)N(CC)C(=O)[C@@H]12 = c2
CO[C@@H]1COC(=O)CC=C[C@@H](C)[C@@H]2C=C[C@H](O)[C@@H](COC(=O)CCC[C@H]1C)O2 = c3
O=C1[C@H]2[C@H]3[C@H](O)[C@H](O)CC(=NOC[C@@H](O)COCc4ccco4)[C@H]3CC[C@H]2C(=O)N1c1cccc(Oc2ccccc2)c1 = c3
[N-]=[N+]=Nc1ccccc1C[C@@]1(C(N)=O)N=C(c2ccc(OCCCO)cc2)O[C@@H]1c1ccccc1 = c1
CO[C@H]1O[C@H](CO)[C@@H](OC(=O)Nc2ccc(C#N)cc2)[C@H](OC(=O)c2cc3ccccc3[nH]2)[C@H]1OC(=O)c1cc2ccccc2[nH]1 = c1
COCC(=C=CC[C@@H](O)c1ccccc1OCCO)CCO = c3

Query: # bin label for CCOC(=O)C1=CCC(c2cc3ccccc3[nH]2)NC1 (stereo unspecified)
Reply: c2

Query: # bin label for COC(=O)[C@H](C)NC(=O)CCC1CC(OC(=O)NCCc2ccc(F)cc2)CC2(CCCC(COC(=O)NCCc3ccc(Cl)cc3)O2)O1 (stereo partly specified)
Reply: c1

Query: # bin label for "C[C@H]1Cc2c(-c3ccccc3)nc3c(c2CO1)CN(CCOc1ccccc1)CC3"
Reply: c2

Query: # bin label for CC1CC/C=C\[C@H]2OC34C=CCN(C(C)C)C(=O)[C@H]3N(CCCO)C(=O)[C@@H]4C2C(=O)O1 (stereo partly specified)
Reply: c3

Query: # bin label for "CO[C@@H]1COC(=O)[C@H](C)NC(=O)[C@@H](C)COC(=O)CCC[C@H]1C"
Reply: c1

Query: # bin label for N#Cc1ccc(NN2C(C(O)c3cc(C(F)(F)F)cc(C(F)(F)F)c3)C=CC3C(=O)N(c4ccccc4)C(=O)C32)cc1 (stereo unspecified)
Reply: c1

Query: # bin label for "C[C@@H]1C=CCC(=O)OC[C@H](C)C(=O)N[C@@H](C)C(=O)OC1"
Reply: c1
